- target: T1, recombinant human RANKL (soluble, Gly136-Asp317, N-terminal 10 His, expressed in CHO cells) (human, UniProt O14788 136-317)
- T1 construct: residues between secretion signal and His tag are not described; also called hRANKL; hRNAKL
- T1 sequence: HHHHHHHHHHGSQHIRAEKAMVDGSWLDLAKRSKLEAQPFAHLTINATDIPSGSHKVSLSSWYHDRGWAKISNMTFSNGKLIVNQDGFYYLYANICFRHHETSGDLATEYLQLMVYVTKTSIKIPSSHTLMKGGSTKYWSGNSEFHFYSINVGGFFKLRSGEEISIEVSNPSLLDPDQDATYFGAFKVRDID
- run-description: competitive ELISA, RANK-Fc coated, antibody mixed with human RANKL (0.6 µg/ml, equal volume)
Attribute: EC50

binder: 114-5.7.14 (antibody, V domains shown, Murine monoclonal antibody from hybridoma) VH: EVQLQQSGAELVKPGASVKLSCTASGFKIKDTYMHWVRQRPEQGLEWIGRIDSANGNIKYDPKFQGKATITADTSSKTAYLHLSSLTFEDTAVYYCSRPKSNYDFWLPYWGQGTLVTVSA VL: DIQMTQTTSSLSASLGDRVTISCSASQGISNYLNWYQQKPDGTVKLLIYYTSSLHSGVPSRFSGSGSGTDYSLTISNLEPEDIATYYCQQYSKLPLTFGAGTKLELK
EC50, µg/mL: 0.33
--
binder: 114-5.9.4 (antibody, V domains shown, Murine monoclonal antibody from hybridoma) VH: EVQLQQSGAELVKPGASVKLSCTASGFNLKGTYIHWVKQRPGQGLEWIGRIDPANANTKYDPKFQGKATIRTDTSSNTAYLQLSSLTSEDTAVYFCSSPSGHYDVWFAYWGQGTLVTVSP VL: DIQMTQPTSSLSASLGDTVTISCSASQDISNYLNWYQQKPDGTLKLLIYYTSSLHSGVPSRFSGSGSGTDYSLTISNLEPEDIATYYCQQFSKLPLTFGAGTKLELKR
EC50, µg/mL: 0.28
--
binder: 114-7.37.26 (antibody, V domains shown, Murine monoclonal antibody from hybridoma) VH: QVQLQQSGAELASPGASVKLSCKTSGYTFTTYWLQWVKQRPGQGLEWIGAIYPGPGNTKYTQKFKDKATLTADKSASTAYMQLSSLTSEDSAVYYCARRGSRRGIAYWGQGTLVTVSA VL: NIVLTQSPASLAVSLGQRATISCRASESVDSYGRSFMHWYQQRPGQPPTLLIYLASNLESGVPARFSGSGSRTDFTLTIDPVEADDAATYYCQQDNEDPYTFGGGTKLEIK
EC50, µg/mL: 0.29
